The values you see were collected from patent US20130251724A1.

Molecular target: T1, Cynomolgus OSM (cynomolgus, UniProt A0A2K5VPC6 26-221)
T1 construct: also called Cyno OSM; cynomolgus macaque OSM
T1 sequence: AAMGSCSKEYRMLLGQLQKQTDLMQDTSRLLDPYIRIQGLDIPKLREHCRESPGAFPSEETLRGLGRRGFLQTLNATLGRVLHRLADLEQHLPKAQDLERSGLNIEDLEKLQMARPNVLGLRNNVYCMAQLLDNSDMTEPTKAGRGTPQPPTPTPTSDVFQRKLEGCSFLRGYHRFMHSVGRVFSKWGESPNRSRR
Experiment: BIAcore kinetics, transfection supernatant
List of kon values.
Only the number, expressed in M⁻¹ s⁻¹, is required.

Known results for binders:
- BINDER: "Humanised 10G8 H0(IGHV3-23)L1(IGK4-1) (antibody, V domains shown, built from the stated exchange of CDRL2; residue limits derived by me; also called H0 IGHV3_23 + L1 IGKV4_1; H0(huCDRH1)L1(huCDRL2)) VH: EVQLVESGGGLVQPGGSLRLSCAASGFTFSSYAMSWVRQAPGKGLEWVATISDGGSFTYYLDNVRGRFTISRDNAKNSLYLQMNSLRAEDTAVYYCARDVGHTTFWYFDVWGRGTLVTVSS VL: DIVMTQSPDSLAVSLGERATINCRASKSVSAAGYNFMHWYQQKPGQPPKVLIYWASTRESGVPDRFSGSGSGTDFTLTISSLQAEDVAVYYCLHSREFPFTFGGGTKVEIK"
  kon / M⁻¹ s⁻¹: 152000
- BINDER: "Humanised 10G8 H0 IGHV3_23 + L1 IGKV1_5 (antibody, V domains shown, built from the stated exchange of CDRL2; residue limits derived by me) VH: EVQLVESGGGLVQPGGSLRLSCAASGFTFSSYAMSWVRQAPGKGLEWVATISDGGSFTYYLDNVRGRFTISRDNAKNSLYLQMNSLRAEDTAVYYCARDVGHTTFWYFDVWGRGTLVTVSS VL: DIVMTQSPDSLAVSLGERATINCRASKSVSAAGYNFMHWYQQKPGQPPKVLIYKASSLESGVPDRFSGSGSGTDFTLTISSLQAEDVAVYYCLHSREFPFTFGGGTKVEIK"
  kon / M⁻¹ s⁻¹: 66700

query: Any idea what kon was measured for Humanised 10G8 H0L1 (antibody, human IgG1, kappa, V domains shown, IgG1 kappa; mature H0 heavy chain and mature L1 light chain; also called Humanised 10G8 H0L1 parent) VH: EVQLVESGGGLVQPGGSLRLSCAASGFTFSNYAMSWVRQAPGKGLEWVATISDGGSFTYYLDNVRGRFTISRDNAKNSLYLQMNSLRAEDTAVYYCARDVGHTTFWYFDVWGRGTLVTVSS VL: DIVMTQSPDSLAVSLGERATINCRASKSVSAAGYNFMHWYQQKPGQPPKVLIYYASNLESGVPDRFSGSGSGTDFTLTISSLQAEDVAVYYCLHSREFPFTFGGGTKVEIKR ?
result: 345000
